System: HCT116 colon cell carcinoma
Experiment: Relative colony forming efficiency after antisense treatment (Table 13)
Assay type: cell-based, human
Settings: 0.2 μM antisense oligodeoxyribonucleotide phosphorothioate; HCT116 cells; averages of 2-8 determinations
Strand notation (5' to 3'): a small letter for the sugar, then the base; units joined by * are phosphorothioate-linked, units joined directly phosphodiester-linked; [ ] holds rarer units or linkages, { } end groups; capitals alone tell only the bases. d = 2'-deoxy (DNA)
Measurement Type: Reduced relative colony forming efficiency, expressed as % inhibition, HCT116 (%)
Give bare numbers, in %.

CsCCCsTCACsTCCsAGCsAGCsCTsT (antisense dC*dCdCdC*dTdCdAdC*dTdCdC*dAdGdC*dAdGdC*dCdT*dT) [AS-II-109-20]; 6.76
CCCCTTCAGCGGCG (dC*dC*dC*dC*dT*dT*dC*dA*dG*dC*dG*dG*dC*dG) [AS-II-253-14]; 53.28
CCCAGTTCCAGCATAAGTCT (DNA, all phosphorothioate, methylation of C not given here) [AS-II-1182-20]; 88.13

I am curious: what Reduced relative colony forming efficiency, expressed as % inhibition, HCT116 value has been reported for ATAAAGTCAAATGGGTTCTC (DNA, all phosphorothioate, methylation of C not given here) [AS-II-1224-20] ?
41.78

# credit: patent US7405205B2
